target: RSV-F of RSV subtype B strain 1580 (respiratory syncytial virus subtype B, …); assay: cell-based or functional assay

{"Binder": "H1H3592P3 (antibody, V domains shown) VH: EVQLVESGGDLVQPGRSLRLSCVASGFTFDDYAMHWVRQAPGKGLEWVSGVSWSGSTVGYADSVKGRFTVSRDNAQKSLYLQMNSLRAEDTALYYCVKDAYKFNYYYYGLDVWGQGTTVTVSS VL: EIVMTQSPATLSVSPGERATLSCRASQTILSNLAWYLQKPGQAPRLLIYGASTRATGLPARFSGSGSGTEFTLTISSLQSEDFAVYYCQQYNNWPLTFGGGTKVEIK", "RSV - 1580 Neutral. IC50 [pM], pM": 31}
{"Binder": "H1H3627N (antibody, V domains shown) VH: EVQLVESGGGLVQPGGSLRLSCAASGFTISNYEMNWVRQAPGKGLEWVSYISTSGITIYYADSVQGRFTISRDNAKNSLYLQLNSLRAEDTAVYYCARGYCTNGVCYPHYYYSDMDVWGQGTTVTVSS VL: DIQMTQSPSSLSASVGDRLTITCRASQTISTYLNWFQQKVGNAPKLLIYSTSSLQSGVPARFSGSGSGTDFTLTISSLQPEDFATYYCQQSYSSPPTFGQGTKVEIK", "RSV - 1580 Neutral. IC50 [pM], pM": 6.7}
{"Binder": "Control II (motavizumab sequence) (antibody, V domains shown) VH: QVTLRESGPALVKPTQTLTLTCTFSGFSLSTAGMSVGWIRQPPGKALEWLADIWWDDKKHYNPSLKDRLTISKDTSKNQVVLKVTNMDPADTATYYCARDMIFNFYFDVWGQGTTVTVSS VL: DIQMTQSPSTLSASVGDRVTITCSASSRVGYMHWYQQKPGKAPKLLIYDTSKLASGVPSRFSGSGSGTEFTLTISSLQPDDFATYYCFQGSGYPFTFGGGTKVEIKR", "RSV - 1580 Neutral. IC50 [pM], pM": 43}
{"Binder": "Control I (palivizumab sequence) (antibody, V domains shown, also called Control 1; SYNAGIS) VH: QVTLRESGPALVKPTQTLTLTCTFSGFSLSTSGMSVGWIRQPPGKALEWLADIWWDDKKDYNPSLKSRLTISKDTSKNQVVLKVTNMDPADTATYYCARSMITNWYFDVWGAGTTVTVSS VL: DIQMTQSPSTLSASVGDRVTITCKCQLSVGYMHWYQQKPGKAPKLLIYDTSKLASGVPSRFSGSGSGTEFTLTISSLQPDDFATYYCFQGSGYPFTFGGGTKLEIKR", "RSV - 1580 Neutral. IC50 [pM], pM": 375}
